- Test system: HOP-62 NSCLC
- PROTOCOL: NCI tumour cell line growth inhibition, 48 h
Listing of recorded TGI by entry.

| COMPOUND | EXPERIMENTAL SYSTEM | TGI |
| --- | --- | --- |
| CCOC(=O)CCN1C(=O)C(=O)N(c2ccc(OC)cc2)C1=S | HOP-62 NSCLC | > 100 µM |
| CCCCCCCCCCCCCC[n+]1ccc(C(N)=O)cc1 | HOP-62 NSCLC | 3.45 µM |
| CC(C)(C)N/N=C(\C(=O)Nc1nc(=S)[nH][nH]1)C1C(=O)Nc2ccccc2S1=O (stereo not drawn) | HOP-62 NSCLC | > 100 µM |
